The listing below reports IC50 for compounds tested on TEAD4(217-434) (Homo sapiens (Human), UniProt Q15561).
Sequence (Q15561 217-434): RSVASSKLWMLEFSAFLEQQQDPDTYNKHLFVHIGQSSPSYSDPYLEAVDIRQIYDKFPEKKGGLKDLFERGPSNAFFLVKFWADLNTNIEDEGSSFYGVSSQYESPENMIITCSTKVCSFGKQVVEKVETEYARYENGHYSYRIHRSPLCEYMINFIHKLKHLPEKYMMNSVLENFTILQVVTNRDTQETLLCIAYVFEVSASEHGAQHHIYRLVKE
Write the number in nM without appending the unit.

State IC50 on TEAD4(217-434) (Homo sapiens (Human), UniProt Q15561). Entry: C=CC(=O)N1C[C@@H](CN(C)C)[C@H](Nc2nnc(-c3ccc(C(F)(F)F)cc3)c3ccccc23)C1 [Example 46]
830

Output reported IC50 of the compound C=CC(=O)N1C[C@@H](CO)[C@H](Nc2nnc(-c3ccc(C(F)(F)F)cc3)c3cccc(F)c23)C1 [Example 15] on TEAD4(217-434) (Homo sapiens (Human), UniProt Q15561).
25

Write IC50 of C=CC(=O)N1CC(Nc2nc(-c3ccc(C(F)(F)F)cc3)nc3ccccc23)C1 [Comparative Example B, reference compound] ; system used: TEAD4(217-434) (Homo sapiens (Human), UniProt Q15561)
30

Quote IC50 with test system TEAD4(217-434) (Homo sapiens (Human), UniProt Q15561) for C=CC(=O)N1C[C@H](O)[C@H](Nc2ncc(-c3ccc(C(F)(F)F)cn3)c3ncccc23)C1 [Example 35]
79

Consider the compound C=CC(=O)N[C@H]1CCN(c2nc(-c3ccc(C(F)(F)F)cc3)nc3ccccc23)C1 (racemic) [Comparative Example D, reference compound] tested on TEAD4(217-434) (Homo sapiens (Human), UniProt Q15561); state its IC50.
2900

Under TEAD4(217-434) (Homo sapiens (Human), UniProt Q15561): report IC50 of C=CC(=O)NCC1(Nc2nnc(-c3ccc(C(F)(F)F)cc3)c3ccccc23)CCC1 [Example 42] .
70

Enter measured IC50, system TEAD4(217-434) (Homo sapiens (Human), UniProt Q15561), for the compound shown: C=CC(=O)N1C[C@H](CO)[C@@H](Nc2nnc(-c3ccc(C(F)(F)F)cc3)c3ccccc23)C1 [Example 22]
950

Return reported IC50 for target or system TEAD4(217-434) (Homo sapiens (Human), UniProt Q15561), item C=CC(=O)NC1(CNc2nnc(-c3ccc(C(F)(F)F)cc3)c3ccccc23)CCC1 [Example 41] .
72

Tell me IC50 of C=CC(=O)N1C[C@H](F)[C@H](Nc2nnc(-c3ccc(C(F)(F)F)cc3)c3ccccc23)C1 [Example 10] when tested on TEAD4(217-434) (Homo sapiens (Human), UniProt Q15561).
32

Send back TEAD4(217-434) (Homo sapiens (Human), UniProt Q15561) IC50 of C=CC(=O)N1C[C@@H](CO)[C@H](Nc2nnc(-c3ccc(C(F)(F)F)cc3)c3cccnc23)C1 [Example 26] only.
76

Please indicate recorded IC50 of C=CC(=O)N1CC[C@H](Nc2ncc(-c3ccc(C(F)(F)F)cc3)c3nccnc23)C1 [Example 45] measured with TEAD4(217-434) (Homo sapiens (Human), UniProt Q15561).
12

Send back TEAD4(217-434) (Homo sapiens (Human), UniProt Q15561) IC50 of C=CC(=O)N1CC[C@H](Nc2nnc(-c3ccc(C(F)(F)F)cn3)c3cccnc23)C1 [Example 16] only.
270

Enter recorded IC50 with TEAD4(217-434) (Homo sapiens (Human), UniProt Q15561) for C=CC(=O)N1CC[C@@H](c2nc(-c3ccc(C(F)(F)F)cc3)c3ccccc3n2)C1 (racemic) [Comparative Example C, reference compound] here.
55

Lab note: record IC50 of C=CC(=O)N1C[C@@H](CO)[C@H](Nc2ncc(-c3ccc(C(F)(F)F)cn3)c3ncccc23)C1 [Example 37] tested on TEAD4(217-434) (Homo sapiens (Human), UniProt Q15561).
180

Under TEAD4(217-434) (Homo sapiens (Human), UniProt Q15561), report IC50 for C=C(F)C(=O)N1C[C@H](F)[C@H](Nc2nnc(-c3ccc(C(F)(F)F)cc3)c3cccnc23)C1 [Example 6]
78

---

So I've got a bunch of compounds here, and I need their log10 solubility at 24 h values.
# Procedure Details: Solubility (thermodynamic, shake-flask)
# Type: physicochemical
# Assay Conditions: thermodynamic from solid; aqueous phosphate buffer (pH 7.4), 24 hours at 25° C.
Scale type: logarithmic (base 10). Underlying solubility at 24 h unit: µM.

State its log10 solubility at 24 h: C=CC(=O)N1C[C@H](O)[C@H](Nc2nnc(-c3ccc(C(F)(F)F)cc3)c3cccc(F)c23)C1
1.59

Answer with reported log10 solubility at 24 h of C=CC(=O)N1C[C@@H](CO)[C@H](Nc2nnc(-c3ccc(C(F)(F)F)cc3)c3ccccc23)C1
1.68

Query log10 solubility at 24 h for C=CC(=O)N1C[C@H](O)[C@H](Nc2ncc(-c3ccc(C(F)(F)F)cc3)c3ncccc23)C1
1.64

Item C=CC(=O)NC1(CNc2nnc(-c3ccc(C(F)(F)F)cc3)c3ccccc23)CCC1 : provide log10 solubility at 24 h
1.86

Respond only with log10 solubility at 24 h recorded for C=CC(=O)NCC1(Nc2nnc(-c3ccc(C(F)(F)F)cc3)c3ccccc23)CCC1
1.28

Return log10 solubility at 24 h for the following compound: C=CC(=O)N1CC[C@H](Nc2nnc(-c3ccc(C(F)(F)F)cc3)c3cccnc23)C1
1.51

Supply reported log10 solubility at 24 h belonging to this compound: C=CC(=O)N1C[C@H](O)[C@H](Nc2nnc(-c3ccc(C(F)(F)F)cc3)c3cccnc23)C1
2.56

---

# Procedure Details: Protein binding measurements in human plasma (Hu PPB)
# Assay type: in vitro ADME
# Assay Conditions: equilibrium dialysis for 18 hours, fraction unbound
Binary call on Hu PPB (% free) with cut-off 2 % free: strictly below means met, and equality or higher means not met.

Item C=CC(=O)N1CC[C@H](Nc2ncc(-c3ccc(C(F)(F)F)cn3)c3ncccc23)C1 [Example 38] : Hu PPB (% free) beneath 2 % free, strictly?
not met

Dear colleague, could you confirm whether Hu PPB (% free) of C=CC(=O)N1C[C@@H](CO)[C@H](Nc2ncc(-c3ccc(C(F)(F)F)cc3)c3nccnc23)C1 [Example 27] falls below 2 % free? Thanks.
not met

Problem: For the molecule C=CC(=O)NC1(CNc2nnc(-c3ccc(C(F)(F)F)cc3)c3ccccc23)CC1 [Example 40] , is Hu PPB (% free) under 2 % free?
met

For this molecule, is Hu PPB (% free) lower than 2 % free? C=CC(=O)N1CC[C@H](Nc2nnc(-c3ccc(C(F)(F)F)cc3)c3cccc(F)c23)C1 [Example 13]
not met

In plain terms, does C=CC(=O)N1CC[C@H](Nc2nnc(-c3ccc(C(F)(F)F)cc3)c3cccnc23)C1 [Example 8] come in under 2 % free for Hu PPB (% free)?
not met

Below 2 % free on Hu PPB (% free)? Entry C=CC(=O)N1CC[C@H](Nc2ncc(-c3ccc(C(F)(F)F)cc3)c3ncccc23)C1 [Example 39]
met

Here's an entry: C=CC(=O)N1C[C@@H](CO)[C@H](Nc2nnc(-c3ccc(C(F)(F)F)cc3)c3cccnc23)C1 [Example 26] . Is its Hu PPB (% free) below 2 % free?
not met

Decide: Hu PPB (% free) of C=CC(=O)N[C@H]1CCN(c2nc(-c3ccc(C(F)(F)F)cc3)nc3ccccc23)C1 (racemic) [Comparative Example D, reference compound] strictly below 2 % free?
met

---

# Procedure Details: Protein binding measurements in human plasma (Hu PPB)
# Format: in vitro ADME
# Assay Conditions: equilibrium dialysis for 18 hours, fraction unbound
Give 1.0 when the value for Hu PPB (% free) is at least 8 % free. Give 0.0 when it is less.

Identify whether the reported Hu PPB (% free) of the following compound is 8 % free or greater: C=CC(=O)N1CCC[C@H](Nc2nnc(-c3ccc(C(F)(F)F)cc3)c3ccccc23)C1 [Example 50]
0.0

API: above_or_equal(metric=Hu PPB (% free), cutoff=8 % free) for item C=CC(=O)N1C[C@@H](Nc2nnc(-c3ccc(C(F)(F)F)cc3)c3ccccc23)C[C@@H]1CO [Example 47]
1.0

hey, is Hu PPB (% free) for this one >= 8 % free? C=CC(=O)N1C[C@@H](COC)[C@H](Nc2nnc(-c3ccc(C(F)(F)F)cc3)c3ccccc23)C1 [Example 28]
0.0

Confirm if Hu PPB (% free) reported for the compound C=CC(=O)N1CC[C@H](Nc2nnc(-c3ccc(C(F)(F)F)cc3)c3ncccc23)C1 [Example 7] is 8 % free or above.
1.0

// inclusive: Hu PPB (% free) at least 8 % free? input: C=CC(=O)N1C[C@H](CO)[C@H](Nc2nnc(-c3ccc(C(F)(F)F)cc3)c3ccccc23)C1 [Example 49]
1.0

Hello, I need to know if C=C(F)C(=O)N1C[C@H](F)[C@H](Nc2nnc(-c3ccc(C(F)(F)F)cc3)c3ncccc23)C1 [Example 5] has measured Hu PPB (% free) not below 8 % free. Thanks!
0.0

Item C=CC(=O)N1C[C@H](O)[C@H](Nc2nnc(-c3ccc(C(F)(F)F)cc3)c3cccc(F)c23)C1 [Example 14] with Hu PPB (% free) of 8 % free or above?
0.0
